Measured Tm values are reported for all entries that follow.
Test: Differential scanning fluorimetry (DSF) melting temperature of Sgf29 and variants
Format: physicochemical, Homo sapiens
Conditions: SYPRO-Orange fluorescence, 25 mM TRIS pH 7.5, 50 mM NaCl, 1 mM DTT, 2.5 μl of 25 μM protein in 25 μl, 20–95°C, 1°C min^-1, ± SD, measured in triplicate
Write the value in °C as a bare number.

Which Tm is reported for this molecule? D266E: Sgf29 variant, substitution of D266 by glutamic acid (protein, left off: 6xHis, end not stated, cleaved, Sgf29 variant, substitution of D266 by glutamic acid) RRGVLMTLLQQSAMTLPLWIGKPGDKPPPLCGAIPASGDYVARPGDKVAARVKAVDGDEQWILAEVVSYSHATNKYEVDDIDEEGKERHTLSRRRVIPLPQWKANPETDPEALFQKEQLVLALYPQTTCFYRALIHAPPQRPQDDYSVLFEETSYADGYSPPLNVAQRYVVACKEPKKK
57.7

Query (molecule): D266Y: Sgf29 variant, D266 substituted by tyrosine (protein, left off: 6xHis, end not stated, cleaved, Sgf29 variant, D266 substituted by tyrosine) RRGVLMTLLQQSAMTLPLWIGKPGDKPPPLCGAIPASGDYVARPGDKVAARVKAVDGDEQWILAEVVSYSHATNKYEVDDIDEEGKERHTLSRRRVIPLPQWKANPETDPEALFQKEQLVLALYPQTTCFYRALIHAPPQRPQDDYSVLFEYTSYADGYSPPLNVAQRYVVACKEPKKK ; field requested: Tm
54.5
